Ref: patent US9296741B2

biological target: human BRD4 first bromodomain (BDI_K57-E168) (Homo sapiens (Human)); assay: TR-FRET bromodomain binding assay, BRD4 first bromodomain
measured.parameter: pKi
pKi here: minus log base 10 of the concentration, concentration in moles per litre.

get_value(item= CCOc1ccc(S(C)(=O)=O)cc1-c1cn(C)c(=O)c2[nH]ccc12 , readout=pKi) returns 7.62

get_value(item= CN1CCN(C(=O)c2cc3c(-c4cc(S(C)(=O)=O)ccc4Oc4ccc(F)cc4F)cn(C)c(=O)c3[nH]2)CC1 , readout=pKi) returns 8.21

get_value(item= Cn1cc(-c2cc(S(C)(=O)=O)ccc2Oc2ccc(F)cc2F)c2cc(CNC3CCOC3)[nH]c2c1=O (centres unmarked) , readout=pKi) returns 7.74

get_value(item= Cn1cc(-c2cc(S(C)(=O)=O)ccc2Oc2ccc(F)cc2F)c2cc(CO)[nH]c2c1=O , readout=pKi) returns 7.94

get_value(item= CCS(=O)(=O)Nc1ccc(Oc2ccc(F)cc2F)c(-c2cn(C)c(=O)c3[nH]ccc23)c1 , readout=pKi) returns 8.46

get_value(item= CC1CCC(Oc2ccc(S(C)(=O)=O)cc2-c2cn(C)c(=O)c3[nH]ccc23)CC1 (centres unmarked) , readout=pKi) returns 8.66

get_value(item= Cn1cc(-c2cc(S(C)(=O)=O)ccc2NC2CCCCC2)c2cc[nH]c2c1=O , readout=pKi) returns 8.68

get_value(item= CCS(=O)(=O)Nc1ccc(Oc2ccc(C(N)=O)cc2)c(-c2cn(C)c(=O)c3[nH]ccc23)c1 , readout=pKi) returns 8.78

* * *

assay: Mouse liver microsome stability assay; format: in vitro ADME; details: male, CD1, mouse, microsomes, pH 7.4
measured.parameter: half-life at 0.5 μM (min)
Respond numerically; units are min and should not be typed.

get_value(item= Cn1cc(-c2cc(S(C)(=O)=O)ccc2Oc2ccc(F)cc2F)c2cc(CNc3nccs3)[nH]c2c1=O , readout=half-life at 0.5 μM) returns 12

get_value(item= Cn1cc(-c2cc(S(C)(=O)=O)ccc2Oc2cccc3nsnc23)c2cc[nH]c2c1=O , readout=half-life at 0.5 μM) returns 9

get_value(item= Cn1cc(-c2ccccc2C(=O)c2ccc(Cl)cc2)c2cc[nH]c2c1=O , readout=half-life at 0.5 μM) returns 7

get_value(item= Cn1cc(-c2cc(S(C)(=O)=O)ccc2Oc2ccc3cccnc3c2)c2cc[nH]c2c1=O , readout=half-life at 0.5 μM) returns 6

get_value(item= CN(C)CCNC(=O)c1ccc(Oc2ccc(F)cc2F)c(-c2cn(C)c(=O)c3[nH]ccc23)c1 , readout=half-life at 0.5 μM) returns 83

get_value(item= Cn1cc(-c2cc(S(C)(=O)=O)ccc2Oc2cccc3cnccc23)c2cc[nH]c2c1=O , readout=half-life at 0.5 μM) returns 4

get_value(item= Cn1cc(-c2cc(C(=O)Nc3ccc4cn[nH]c4c3)ccc2Oc2ccc(F)cc2F)c2cc[nH]c2c1=O , readout=half-life at 0.5 μM) returns 18

get_value(item= CN1CCN(Cc2cc3c(-c4cc(S(C)(=O)=O)ccc4Oc4ccc(F)cc4F)cn(C)c(=O)c3[nH]2)CC1 , readout=half-life at 0.5 μM) returns 116

get_value(item= CCNC(=O)Cc1ccc(OCc2ccccc2)c(-c2cn(C)c(=O)c3[nH]ccc23)c1 , readout=half-life at 0.5 μM) returns 13

get_value(item= CN1CCC[C@H]1COc1ccc(S(C)(=O)=O)cc1-c1cn(C)c(=O)c2[nH]ccc12 , readout=half-life at 0.5 μM) returns 98

get_value(item= Cn1cc(-c2cc(S(C)(=O)=O)ccc2Oc2ccccc2)c2cc[nH]c2c1=O , readout=half-life at 0.5 μM) returns 34

* * *

target: human BRD4 second bromodomain (BDII_E352-M457) (Homo sapiens (Human)); experiment: TR-FRET bromodomain binding assay, BRD4 second bromodomain
measured.parameter: Ki

get_value(item= Cn1cc(-c2cc(NS(C)(=O)=O)ccc2OC2CCCOC2)c2cc[nH]c2c1=O (stereo not shown) , readout=Ki) returns 6.6 nM

get_value(item= CC(C)c1ccc(Oc2ccc(S(C)(=O)=O)cc2-c2cn(C)c(=O)c3[nH]ccc23)cc1 , readout=Ki) returns 9.6 nM

get_value(item= Cn1cc(-c2cc(S(C)(=O)=O)ccc2Oc2ccc3c(c2)CCC3=O)c2cc[nH]c2c1=O , readout=Ki) returns 22.4 nM

get_value(item= CCS(=O)(=O)Nc1ccc(Oc2ccc(C(N)=O)cc2)c(-c2cn(C)c(=O)c3[nH]ccc23)c1 , readout=Ki) returns 0.65 nM

* * *

Please go through the items and note down their half-life at 0.5 μM.
assay: Human liver microsome stability assay; type: in vitro ADME; details: both sexes, human, microsomes, pH 7.4
Respond numerically; units are min and should not be typed.

get_value(item= Cn1cc(-c2cc(NS(=O)(=O)C3CC3)ccc2Oc2ccc(F)cc2F)c2cc[nH]c2c1=O [Example 235] , readout=half-life at 0.5 μM) returns 81

get_value(item= Cc1ncccc1Oc1ccc(S(C)(=O)=O)cc1-c1cn(C)c(=O)c2[nH]ccc12 [Example 179] , readout=half-life at 0.5 μM) returns 80

get_value(item= CCOC(=O)c1ccc(NC2CCCC2)c(-c2cn(C)c(=O)c3[nH]ccc23)c1 [Example 40] , readout=half-life at 0.5 μM) returns 13.1

get_value(item= Cn1cc(-c2cc(S(N)(=O)=O)ccc2NCC2CC2)c2cc[nH]c2c1=O [Example 238] , readout=half-life at 0.5 μM) returns 103

get_value(item= CCS(=O)(=O)c1ccc(Oc2cccc(CO)c2)c(-c2cn(C)c(=O)c3[nH]ccc23)c1 [Example 317] , readout=half-life at 0.5 μM) returns 88

get_value(item= CNS(=O)(=O)c1cnc(NC2CCCCC2)c(-c2cn(C)c(=O)c3[nH]ccc23)c1 [Example 97] , readout=half-life at 0.5 μM) returns 26

get_value(item= Cn1cc(-c2cc(NS(=O)(=O)CCF)ccc2Oc2c(F)cc(F)cc2F)c2cc[nH]c2c1=O [Example 114] , readout=half-life at 0.5 μM) returns 13

get_value(item= Cn1cc(-c2cc(S(=O)(=O)Nc3ccccc3)ccc2OCC2CC2)c2cc[nH]c2c1=O [Example 313] , readout=half-life at 0.5 μM) returns 5

get_value(item= CN(C)C(=O)c1cc2c(-c3cc(S(C)(=O)=O)ccc3Oc3ccc(F)cc3F)cn(C)c(=O)c2[nH]1 [Example 269] , readout=half-life at 0.5 μM) returns 79

get_value(item= CNS(=O)(=O)c1cnc(OCC2CC2)c(-c2cn(C)c(=O)c3[nH]ccc23)c1 [Example 208] , readout=half-life at 0.5 μM) returns 88

get_value(item= Cn1cc(-c2cc(NS(C)(=O)=O)ccc2OCc2ccccc2)c2cc[nH]c2c1=O [Example 63] , readout=half-life at 0.5 μM) returns 39

get_value(item= Cn1cc(-c2cc(C(=O)NCCN3CCCC3=O)ccc2Oc2ccc(F)cc2F)c2cc[nH]c2c1=O [Example 122] , readout=half-life at 0.5 μM) returns 8

get_value(item= Cn1cc(-c2cc(CS(C)(=O)=O)ccc2Nc2ccc(F)cc2)c2cc[nH]c2c1=O [Example 335] , readout=half-life at 0.5 μM) returns 35

get_value(item= Cn1cc(-c2cc(S(C)(=O)=O)ccc2OC2CCCCCC2)c2cc[nH]c2c1=O [Example 220] , readout=half-life at 0.5 μM) returns 5

get_value(item= Cn1cc(-c2cc(C(N)=O)ccc2Oc2ccccc2)c2cc[nH]c2c1=O [Example 19] , readout=half-life at 0.5 μM) returns 92

get_value(item= CCS(=O)(=O)c1ccc(OC2CCSCC2)c(-c2cn(C)c(=O)c3[nH]ccc23)c1 [Example 264] , readout=half-life at 0.5 μM) returns 14

get_value(item= Cn1cc(-c2ccccc2CN2CCOCC2)c2cc[nH]c2c1=O [Example 12] , readout=half-life at 0.5 μM) returns 51

get_value(item= Cn1cc(-c2cc(S(C)(=O)=O)ccc2Oc2cccnc2)c2cc[nH]c2c1=O [Example 190] , readout=half-life at 0.5 μM) returns 27

* * *

assay: Mouse liver microsome stability assay; format: in vitro ADME; conditions: male, CD1, mouse, microsomes, pH 7.4
Label scheme for half-life at 0.5 μM: lower than 7 min is not satisfied, 7 min and above is satisfied.

Prompt: Entry Cn1nc(-c2ccccc2Oc2ccccc2)c2cc[nH]c2c1=O [Example 82] : is its half-life at 0.5 μM no less than 7 min?
Completion: not satisfied

Prompt: Entry CCOC(=O)c1cc2c(-c3cc(NS(C)(=O)=O)ccc3Oc3ccccc3)cn(C)c(=O)c2[nH]1 [Example 71] : is its half-life at 0.5 μM no less than 7 min?
Completion: not satisfied

Prompt: Entry CN(C)CCS(=O)(=O)Nc1ccc(Oc2ccc(F)cc2F)c(-c2cn(C)c(=O)c3[nH]ccc23)c1 [Example 300] : is its half-life at 0.5 μM no less than 7 min?
Completion: satisfied

Prompt: Entry CCS(=O)(=O)Nc1ccc(Oc2ccc(F)cc2F)c(-c2cn(C)c(=O)c3[nH]cc(CN4CCOCC4)c23)c1 [Example 350] : is its half-life at 0.5 μM no less than 7 min?
Completion: satisfied

Prompt: Entry Cn1cc(-c2cc(S(C)(=O)=O)ccc2Oc2cc(F)c(F)c(F)c2)c2cc[nH]c2c1=O [Example 194] : is its half-life at 0.5 μM no less than 7 min?
Completion: satisfied

Prompt: Entry Cn1cc(-c2cc(S(C)(=O)=O)ccc2OCC2CCOC2)c2cc[nH]c2c1=O (stereo not drawn) [Example 217] : is its half-life at 0.5 μM no less than 7 min?
Completion: satisfied

Prompt: Entry Cn1cc(-c2cc(S(C)(=O)=O)ccc2NC2CCCCC2)c2cc[nH]c2c1=O [Example 147] : is its half-life at 0.5 μM no less than 7 min?
Completion: satisfied

Prompt: Entry Cn1cc(-c2cc(S(C)(=O)=O)ccc2Oc2ccc3c(c2)CCC3)c2cc[nH]c2c1=O [Example 191] : is its half-life at 0.5 μM no less than 7 min?
Completion: not satisfied
